Reported inhibition at 250 µM is given for each of the following molecules.
Molecular target: eqBChE (Equus caballus, UniProt P81908)
Construct: eqBChE (from equine serum); purchased Sigma–Aldrich (St. Louis, MO, USA); host or cells: equine serum
Sequence (P81908 whole entry): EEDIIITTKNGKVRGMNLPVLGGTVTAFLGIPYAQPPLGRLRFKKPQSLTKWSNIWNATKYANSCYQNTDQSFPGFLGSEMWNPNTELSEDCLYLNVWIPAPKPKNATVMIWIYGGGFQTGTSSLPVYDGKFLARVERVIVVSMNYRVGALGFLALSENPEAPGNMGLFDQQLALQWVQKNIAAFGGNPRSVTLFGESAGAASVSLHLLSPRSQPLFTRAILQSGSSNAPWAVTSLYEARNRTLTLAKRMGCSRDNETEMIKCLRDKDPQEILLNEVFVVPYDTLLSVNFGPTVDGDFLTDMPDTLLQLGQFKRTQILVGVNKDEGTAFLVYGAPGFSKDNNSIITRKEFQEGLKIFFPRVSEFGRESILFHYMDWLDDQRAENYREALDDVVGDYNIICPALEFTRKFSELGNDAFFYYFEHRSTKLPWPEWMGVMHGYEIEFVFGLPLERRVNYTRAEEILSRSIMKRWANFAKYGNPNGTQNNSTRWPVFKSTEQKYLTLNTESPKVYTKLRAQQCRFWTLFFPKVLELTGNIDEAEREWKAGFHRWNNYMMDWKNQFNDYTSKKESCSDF
Assay: eqBChE inhibition, modified Ellman's method
Assay type: biochemical
Conditions: read-out: eqBChE Inhibition (%)
Return type: number; implicit unit %.

Exercise: Please look up its inhibition at 250 µM: Cc1ccc(O)c(/C=C/c2cccs2)c1 [Compound 4]
Key: 81.1

Exercise: Please look up its inhibition at 250 µM: Cc1cnc(/C=C\c2cc(F)ccc2O)s1 [Compound 9]
Key: 10.5

Exercise: Please look up its inhibition at 250 µM: Cc1cnc(/C=C/c2cccc(O)c2)s1 [Compound 14]
Key: 15.6

# evaluate next
Exercise: Please look up its inhibition at 250 µM: Cc1ccc(O)c(/C=C/c2ccc(C)s2)c1 [Compound 8]
Key: 88.5

---

Molecular target: eeAChE (Electrophorus electricus, UniProt O42275)
Sequence (O42275 24-633): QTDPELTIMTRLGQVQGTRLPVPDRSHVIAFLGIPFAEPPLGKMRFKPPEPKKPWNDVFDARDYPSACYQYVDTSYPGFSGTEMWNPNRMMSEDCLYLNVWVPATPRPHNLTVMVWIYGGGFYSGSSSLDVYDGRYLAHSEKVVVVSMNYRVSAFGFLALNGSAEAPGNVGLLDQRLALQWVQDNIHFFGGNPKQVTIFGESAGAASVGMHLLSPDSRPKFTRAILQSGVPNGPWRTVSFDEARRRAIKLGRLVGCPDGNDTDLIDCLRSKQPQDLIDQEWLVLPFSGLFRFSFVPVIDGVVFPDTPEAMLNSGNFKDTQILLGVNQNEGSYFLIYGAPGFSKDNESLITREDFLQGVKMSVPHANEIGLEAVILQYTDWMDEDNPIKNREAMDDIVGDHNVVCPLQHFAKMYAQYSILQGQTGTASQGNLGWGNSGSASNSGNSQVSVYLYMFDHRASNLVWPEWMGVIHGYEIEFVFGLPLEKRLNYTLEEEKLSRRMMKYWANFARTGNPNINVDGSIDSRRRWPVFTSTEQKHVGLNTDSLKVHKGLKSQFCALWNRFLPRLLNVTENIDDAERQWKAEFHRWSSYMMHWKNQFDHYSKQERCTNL
Assay: eeAChE inhibition, modified Ellman's method
Format: biochemical
Conditions: read-out: eeAChE Inhibition (%)
Reported inhibition at 500 µM is given for each of the following compounds.
Return type: number; implicit unit %.

Exercise: Please look up its inhibition at 500 µM: Oc1ccc(F)cc1/C=C/c1cccs1
Key: 80.9

Exercise: Please look up its inhibition at 500 µM: Cc1cnc(/C=C\c2cc(Cl)ccc2O)s1
Key: 34.2

Exercise: Please look up its inhibition at 500 µM: Cc1cnc(/C=C/c2ccccc2O)s1
Key: 17.1

Exercise: Please look up its inhibition at 500 µM: Cc1cnc(/C=C/c2ccc(O)cc2)s1
Key: 9.1

Exercise: Please look up its inhibition at 500 µM: COc1ccc(O)c(/C=C/c2cccs2)c1
Key: 77.8

# evaluate next
Exercise: Please look up its inhibition at 500 µM: COc1ccc(/C=C/c2ncc(C)s2)c(O)c1
Key: 29.3

---

Target: eqBChE (Equus caballus)
Construct: eqBChE (from equine serum); purchased Sigma–Aldrich (St. Louis, MO, USA); host or cells: equine serum
Test: eqBChE inhibition, modified Ellman's method
Format: biochemical
Conditions: dash = IC50 value not achieved
outcome_measure: pIC50
In plain terms, pIC50 is the concentration in mol/L turned into minus its base-10 logarithm.

Example cases with answers are listed next.
Exercise: API: value(readout=pIC50, system=eqBChE (Equus caballus)) for record Cc1cnc(/C=C/c2ccc(O)cc2)s1 [Compound 12]
Key: 3.72

Exercise: API: value(readout=pIC50, system=eqBChE (Equus caballus)) for record Cc1ccc(/C=C/c2cc(F)ccc2O)s1 [Compound 5]
Key: 4.64

Exercise: API: value(readout=pIC50, system=eqBChE (Equus caballus)) for record Oc1ccc(F)cc1/C=C/c1cccs1 [Compound 1]
Key: 4.18

# evaluate next
Exercise: API: value(readout=pIC50, system=eqBChE (Equus caballus)) for record COc1ccc(O)c(/C=C/c2cccs2)c1 [Compound 3]
Key: 3.69

---

Reported IC50 is given for each of the following compounds.
Biological target: eeAChE (Electrophorus electricus, UniProt O42275)
Experiment: eeAChE inhibition, modified Ellman's method
Assay type: biochemical
Settings: dash = IC50 value not achieved
Return type: number; implicit unit µM.

Example cases with answers are listed next.
Exercise: Please look up its IC50: Oc1ccc(Cl)cc1/C=C/c1cccs1 [Compound 2]
Key: 82.3

Exercise: Please look up its IC50: COc1ccc(O)c(/C=C/c2cccs2)c1 [Compound 3]
Key: 405

Exercise: Please look up its IC50: Cc1ccc(/C=C/c2cc(F)ccc2O)s1 [Compound 5]
Key: 155

---
Exercise: Please look up its IC50: Cc1ccc(O)c(/C=C/c2cccs2)c1 [Compound 4]
Key: 225

Exercise: Please look up its IC50: Oc1ccc(F)cc1/C=C/c1cccs1 [Compound 1]
Key: 178

---

Target: eqBChE (Equus caballus, UniProt P81908)
Construct: eqBChE (from equine serum); purchased Sigma–Aldrich (St. Louis, MO, USA); host or cells: equine serum
Test: eqBChE inhibition, modified Ellman's method
Format: biochemical
Conditions: dash = IC50 value not achieved
Reported pIC50 is given for each of the following molecules.
In plain terms, pIC50 is the concentration in mol/L turned into minus its base-10 logarithm.

Example cases with answers are listed next.
Exercise: Please look up its pIC50: Cc1cnc(/C=C/c2ccccc2O)s1 [Compound 13]
Key: 4.51

Exercise: Please look up its pIC50: Oc1ccc(Cl)cc1/C=C/c1cccs1 [Compound 2]
Key: 4.28

# evaluate next
Exercise: Please look up its pIC50: Cc1ccc(O)c(/C=C/c2cccs2)c1 [Compound 4]
Key: 4.44

---

Assay: DPPH radical scavenging activity
Conditions: at maximal concentration tested, 500 μM
Reported DPPH Inhibition (%) is given for each of the following compounds.

Exercise: Please look up its DPPH Inhibition (%): COc1ccc(O)c(/C=C/c2cccs2)c1
Key: 87.7 ± 0.8 (500) %

Exercise: Please look up its DPPH Inhibition (%): Oc1ccc(Cl)cc1/C=C/c1cccs1
Key: 65.0 ± 2.4 (500) %

Exercise: Please look up its DPPH Inhibition (%): Cc1cnc(/C=C\c2cc(F)ccc2O)s1
Key: 55.4 ± 0.7 (500) %

---
Exercise: Please look up its DPPH Inhibition (%): Oc1ccc(F)cc1/C=C/c1cccs1
Key: 77.2 ± 0.5 (500) %

Exercise: Please look up its DPPH Inhibition (%): Cc1cnc(/C=C\c2cc(Cl)ccc2O)s1
Key: 24.0 ± 0.7 (500) %

---

Test: DPPH radical scavenging activity
Settings: 30 min, 25 °C; dash = IC50 value not achieved
outcome_measure: log10 IC50 (log10 of the value in µM)
Reminder: these figures are log10 of reported IC50, in µM before transformation.

Exercise: Please look up its log10 IC50: COc1ccc(/C=C/c2ncc(C)s2)c(O)c1 [Compound 11]
Key: 1.48

---
Exercise: Please look up its log10 IC50: COc1ccc(O)c(/C=C/c2ccc(C)s2)c1 [Compound 7]
Key: 1.38

Exercise: Please look up its log10 IC50: Cc1ccc(O)c(/C=C/c2ccc(C)s2)c1 [Compound 8]
Key: 1.42

Exercise: Please look up its log10 IC50: Cc1cnc(/C=C/c2ccc(O)cc2)s1 [Compound 12]
Key: 2.15

Exercise: Please look up its log10 IC50: Cc1ccc(/C=C/c2cc(F)ccc2O)s1 [Compound 5]
Key: 2.11

Exercise: Please look up its log10 IC50: COc1ccc(O)c(/C=C/c2cccs2)c1 [Compound 3]
Key: 1.56

Exercise: Please look up its log10 IC50: Cc1ccc(O)c(/C=C/c2cccs2)c1 [Compound 4]
Key: 1.71

Exercise: Please look up its log10 IC50: Cc1cnc(/C=C/c2ccccc2O)s1 [Compound 13]
Key: 2.84

Exercise: Please look up its log10 IC50: Oc1ccc(F)cc1/C=C/c1cccs1 [Compound 1]
Key: 2.20

Exercise: Please look up its log10 IC50: Cc1cnc(/C=C\c2cc(F)ccc2O)s1 [Compound 9]
Key: 2.63

Exercise: Please look up its log10 IC50: Oc1ccc(Cl)cc1/C=C/c1cccs1 [Compound 2]
Key: 2.42

---

Reported inhibition at 500 µM is given for each of the following molecules.
Molecular target: eqBChE (Equus caballus, UniProt P81908)
Construct: eqBChE (from equine serum); purchased Sigma–Aldrich (St. Louis, MO, USA); host or cells: equine serum
Experiment: eqBChE inhibition, modified Ellman's method
Type: biochemical
Details: read-out: eqBChE Inhibition (%)
Return type: number; implicit unit %.

Example cases with answers are listed next.
Exercise: Please look up its inhibition at 500 µM: Cc1cnc(/C=C/c2ccccc2O)s1
Key: 78.2

Exercise: Please look up its inhibition at 500 µM: Cc1cnc(/C=C\c2cc(Cl)ccc2O)s1
Key: 22.4

---
Exercise: Please look up its inhibition at 500 µM: COc1ccc(/C=C/c2ncc(C)s2)c(O)c1
Key: 9.8

Exercise: Please look up its inhibition at 500 µM: COc1ccc(O)c(/C=C/c2cccs2)c1
Key: 68.5

Exercise: Please look up its inhibition at 500 µM: Cc1cnc(/C=C/c2ccc(O)cc2)s1
Key: 68.4

---

Target: eeAChE (Electrophorus electricus)
Assay: eeAChE inhibition, modified Ellman's method
Assay type: biochemical
Conditions: read-out: eeAChE Inhibition (%)
outcome_measure: inhibition at 250 µM (%)
Return type: number; implicit unit %.

Example cases with answers are listed next.
Exercise: API: value(readout=inhibition at 250 µM, system=eeAChE (Electrophorus electricus)) for record Cc1ccc(/C=C/c2cc(F)ccc2O)s1 [Compound 5]
Key: 84.6

Exercise: API: value(readout=inhibition at 250 µM, system=eeAChE (Electrophorus electricus)) for record Cc1ccc(O)c(/C=C/c2cccs2)c1 [Compound 4]
Key: 82.1

Exercise: API: value(readout=inhibition at 250 µM, system=eeAChE (Electrophorus electricus)) for record Cc1cnc(/C=C/c2cccc(O)c2)s1 [Compound 14]
Key: 10.7

# evaluate next
Exercise: API: value(readout=inhibition at 250 µM, system=eeAChE (Electrophorus electricus)) for record Oc1ccc(Cl)cc1/C=C/c1cccs1 [Compound 2]
Key: 83

Data provenance is paper PMC11242640.
